read-out: Peroxisomal acyl-coenzyme A oxidase 1 (ACOX1) gene, ACOX1 (gene 51); experiment: LTEA_HepaRG_ACOX1: Life Technologies and Expression Analysis (LTEA) Assay for Peroxisomal acyl-coenzyme A oxidase 1 (ACOX1) gene using HepaRG (AID 2283467); conditions: mRNA level, 48 h; actives raise or lower the signal
The source made the active and inactive calls. How the source made its calls: active means hit-call score of the fitted dose curve at least 0.9, where 1 is the maximum; inactive means score below 0.9.
Outcome codes: active, inactive

molecule=COc1ccc(C(=CC(=O)N2CCOCC2)c2ccc(Cl)cc2)cc1OC category_label=inactive
molecule="FC(F)C(F)(F)OCC(Cn1cncn1)c1ccc(Cl)cc1Cl (stereo not drawn)" category_label=active
molecule=CCC(CC)Nc1c([N+](=O)[O-])cc(C)c(C)c1[N+](=O)[O-] category_label=inactive
molecule=CCCCOC(=O)c1ccccc1C(=O)O category_label=inactive
molecule="CCOC(=O)CC(SP(=O)(OC)OC)C(=O)OCC (stereo not drawn)" category_label=inactive
molecule=COc1cc(OC)nc(Sc2cccc(Cl)c2C(=O)O)n1 category_label=inactive
molecule=O=[N+]([O-])c1cc(C(F)(F)F)c(Cl)c([N+](=O)[O-])c1Nc1ncc(C(F)(F)F)cc1Cl category_label=active
molecule=CC1(C(=O)Nc2ccc(O)c(Cl)c2Cl)CCCCC1 category_label=inactive
molecule="CCOP(=O)(SC(C)CC)N1CCSC1=O (stereo not drawn)" category_label=inactive
molecule=CCc1cccc(CC)c1N(COC)C(=O)CCl category_label=inactive
molecule=CNc1cnn(-c2cccc(C(F)(F)F)c2)c(=O)c1Cl category_label=inactive
molecule=Nc1c(Cl)cc([N+](=O)[O-])cc1Cl category_label=active
molecule=Cc1nn(-c2cc(NS(C)(=O)=O)c(Cl)cc2Cl)c(=O)n1C(F)F category_label=inactive
molecule="CCOP(=S)(Oc1cnc(C(C)(C)C)nc1)OC(C)C (stereo not drawn)" category_label=active
molecule=CN(C)[C@@H]1C(=O)C(C(N)=O)=C(O)[C@@]2(O)C(=O)C3=C(O)c4c(O)cccc4[C@@](C)(O)[C@H]3[C@H](O)[C@@H]12 category_label=inactive
molecule="C#CCC1=C(C)C(OC(=O)C2C(C=C(C)C)C2(C)C)CC1=O (stereo not drawn)" category_label=inactive
molecule=CN1COCN(Cc2cnc(Cl)s2)C1=N[N+](=O)[O-] category_label=inactive
molecule=CSc1nnc(C(C)(C)C)c(=O)n1N category_label=inactive
molecule=CCOC(=O)COc1cc(-c2nn(C)c(OC(F)F)c2Cl)c(F)cc1Cl category_label=inactive
molecule=CCOP(=S)(OCC)Oc1cc(C)nc(C(C)C)n1 category_label=inactive
molecule=COP(=O)(OC)SCn1c(=O)oc2cc(Cl)cnc21 category_label=inactive
molecule=COc1cccc(C(=O)NN(C(=O)c2cc(C)cc(C)c2)C(C)(C)C)c1C category_label=inactive
molecule="CC(C)=CC1C(C(=O)OCN2C(=O)C3=C(CCCC3)C2=O)C1(C)C (stereo not drawn)" category_label=inactive

The values you see were collected from PubChem BioAssay (EPA / NIEHS).
